- Test system: MDA-MB-231 breast
- methodDescription: NCI-60 one-dose screen, 48 h (100 = growth as untreated, 0 = no growth, -100 = all killed)
- settings: 10 µM unless noted
This is part of a sample that, as a whole, favours compounds with a hit. Of some 83,000 tested, about 20% had one in any assay.
1 means recorded growth is 50% or above; 0 means it is below 50%.

Examples from the recorded data:
COc1cccc(COc2ccc(/C=C3/C(=O)Nc4cc(Cl)ccc43)cc2)c1 : 1
Nc1cc(-c2c[nH]c3ccccc23)nc2cc(-c3c[nH]c4ccccc34)nn12 : 0
C[C@@H]1CN(c2ccc3ncc(C#Cc4cncc(C(=O)Nc5ccc(CN6CCN(C)CC6)c(C(F)(F)F)c5)c4)n3n2)C[C@H](C)O1 : 0

[in] # check: growth of COc1cc(/C=C/C(=O)c2ccc(Cl)cc2)ccc1Oc1nc(NCCO)nc(N2CCOCC2)n1 is greater than or equal to 50%
[out] 1

[in] # bool: growth of COC(=O)C1CN(S(=O)(=O)/N=C2\NC(=O)NC2=C(Cl)Cl)C1 >= 50%
[out] 1
